target: OsWRKY34 (Oryza sativa, UniProt Q0JBA9 1-250); assay: protein-binding microarray (RPBM); PBS, 2% BSA, 51.3 ng/ul salmon testes DNA, 50 uM zinc acetate, 200 nM TF, 25 C, 1 h; high values mean tight binding; settings: protein: recombinant; tags: N-terminal polyhistidine and DsRed monomer fusion (pET32a); label: CyDye5-dUTP incorporated in the synthesized complementary strand; 3' TTTTT single-stranded linker to array surface; dsDNA, one strand shown
Sequence (Q0JBA9 entry or part of it): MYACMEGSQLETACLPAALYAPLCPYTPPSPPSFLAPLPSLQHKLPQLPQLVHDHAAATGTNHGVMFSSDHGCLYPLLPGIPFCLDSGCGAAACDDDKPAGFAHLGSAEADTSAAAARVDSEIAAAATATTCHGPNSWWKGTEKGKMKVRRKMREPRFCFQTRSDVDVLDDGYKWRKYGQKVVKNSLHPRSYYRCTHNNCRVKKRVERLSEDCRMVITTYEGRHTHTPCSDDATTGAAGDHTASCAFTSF
Over roughly 68,000 sequences, “fluorescence intensity (a.u.)” has its median near 9,100; the highest 2% begin near 16,000. The sample holds the highest values, similar sequences and a random draw of the others, so the mix is not that of the screen.
parameter: binding signal

# annotated cases, reported binding signal shown
INSERT INTO assay_data (construct_sequence, reported_measurement) VALUES
  ('ACACCTTCAATCGCTCTCTCATGAATTAACCGAACAAGACCGGAGTCACCTAGTGCAG', '9340 fluorescence intensity (a.u.)'),
  ('TTCGTTCCGATTCTTTTTTTTTCATTTGCTATGCATCTTCCGGAGTCACCTAGTGCAG', '11000 fluorescence intensity (a.u.)'),
  ('CCCTCCCTGGCCGTCGTGCCCGCCGCTGCTCGCCTTCGGCCGGAGTCACCTAGTGCAG', '10100 fluorescence intensity (a.u.)'),
  ('ATCTGTTATGTTTGCCCTGTCATTGGTTCTGCTAATCAATCGGAGTCACCTAGTGCAG', '9160 fluorescence intensity (a.u.)');

Next, consider the following sequence.
Answer with reported binding signal of AATCTAACATGGATTTGCGCACACACTTGTCGTAACGTACCGGAGTCACCTAGTGCAG 9480 fluorescence intensity (a.u.)

* * *

biological target: OsWRKY34 (Oryza sativa, UniProt Q0JBA9 1-250); experiment: protein-binding microarray (RPBM); PBS, 2% BSA, 51.3 ng/ul salmon testes DNA, 50 uM zinc acetate, 200 nM TF, 25 C, 1 h; high values mean tight binding; conditions: protein: recombinant; tags: N-terminal polyhistidine and DsRed monomer fusion (pET32a); label: CyDye5-dUTP incorporated in the synthesized complementary strand; 3' TTTTT single-stranded linker to array surface; dsDNA, one strand shown
The full ranking holds about 68,000 sequences; the median of “fluorescence intensity (a.u.)” is about 9,100, and the highest 2% start at about 16,000. Many of the other results were omitted from the sample, so the highest values are more common in it than they were.
parameter: binding signal

# annotated cases, reported binding signal shown
INSERT INTO measurements (construct_sequence, measured_on, parameter, reported_measurement) VALUES
  ('CGGTGGGGAGGCCGGGAGGGAGGAGGAGAGAAGAGGAGTGCGGAGTCACCTAGTGCAG', 'OsWRKY34 (Oryza sativa, UniProt Q0JBA9 1-250)', 'binding signal', '9450 fluorescence intensity (a.u.)'),
  ('GTATCGCCAAGGAGGAGAGGGGAGAGGGGTGGAAGAGGAACGGAGTCACCTAGTGCAG', 'OsWRKY34 (Oryza sativa, UniProt Q0JBA9 1-250)', 'binding signal', '11900 fluorescence intensity (a.u.)');

Report value: binding signal, system: OsWRKY34 (Oryza sativa, UniProt Q0JBA9 1-250), sequence: CGGCTAGGGACGGGGACGACGCCGGAGTGGGTGGGGAAGGCGGAGTCACCTAGTGCAG 8680 fluorescence intensity (a.u.)

Report value: binding signal, system: OsWRKY34 (Oryza sativa, UniProt Q0JBA9 1-250), sequence: GCATGGTGGCGGCGGGAAGGAGGAGTGGGGCGGCGGGTGCCGGAGTCACCTAGTGCAG 16100 fluorescence intensity (a.u.)

Report value: binding signal, system: OsWRKY34 (Oryza sativa, UniProt Q0JBA9 1-250), sequence: ACACTTTGACTCTTTGATTTAGTAAGCTCGAGTTTATTTTCGGAGTCACCTAGTGCAG 9030 fluorescence intensity (a.u.)

Report value: binding signal, system: OsWRKY34 (Oryza sativa, UniProt Q0JBA9 1-250), sequence: GCAACTGATAGACTAACTTGTCCGGTCCTGTTTTGGAATCCGGAGTCACCTAGTGCAG 10200 fluorescence intensity (a.u.)

Report value: binding signal, system: OsWRKY34 (Oryza sativa, UniProt Q0JBA9 1-250), sequence: AGGGTGAACAGAAGAAGATGAATCTAACGGGTGGGTCTCACGGAGTCACCTAGTGCAG 10800 fluorescence intensity (a.u.)

Report value: binding signal, system: OsWRKY34 (Oryza sativa, UniProt Q0JBA9 1-250), sequence: CCCACGCGCCCACTTTGACCGACCCATCGATCGATCACGACGGAGTCACCTAGTGCAG 14300 fluorescence intensity (a.u.)

Report value: binding signal, system: OsWRKY34 (Oryza sativa, UniProt Q0JBA9 1-250), sequence: GGTGGGCTATAAATATAGTTGGGGAGGGGAGGGAAGACCCCGGAGTCACCTAGTGCAG 16700 fluorescence intensity (a.u.)

Report value: binding signal, system: OsWRKY34 (Oryza sativa, UniProt Q0JBA9 1-250), sequence: AGAAGGAGGAGGAGGAGGAGGAGGAGGAGGGGAGGAGAGCCGGAGTCACCTAGTGCAG 10400 fluorescence intensity (a.u.)
